// data source = patent US20240425496A1

pIC50: −log10 of the molar value.
// values below are pIC50; system is UniProt P23458

{"molecule": "COC1CCN(C2(CC#N)CN(c3nc(Nc4cc(C)ns4)ncc3C)C2)CC1 [E69a]", "pIC50": "> 8.00"}
{"molecule": "Cc1cc(Nc2ncc(C)c(N3CC(CC#N)(N4CCC(C5CC5(F)F)CC4)C3)n2)sn1 (stereo not shown)", "pIC50": "> 8.00"}
{"molecule": "C#CCC1(O)CN(c2nc(Nc3cc(C)ns3)ncc2C)C1 [E63a]", "pIC50": "> 7.00"}
{"molecule": "Cc1cnc(Nc2cnn(C)c2)nc1N1CC(CC#N)(N2CCC3(CC2)CC3(F)F)C1", "pIC50": "> 8.00"}
{"molecule": "Cc1cc(Nc2ncc(C)c(N3CC(CC#N)(N4CC5CC(C5)C4)C3)n2)sn1", "pIC50": "> 8.00"}
{"molecule": "Cc1cnc(Nc2ccccc2)nc1N1CC(CC#N)(N2CCN3CCCC[C@H]3C2)C1", "pIC50": "> 7.70"}
{"molecule": "Cc1cnc(Nc2ccc3c(c2)CN(C)C3)nc1N1CC(CC#N)(N(C)C2CC2)C1", "pIC50": "> 8.00"}
{"molecule": "Cc1cc(Nc2ncc(C)c(N3CC(CCCl)(N4CCCCC4)C3)n2)sn1 [E113a]", "pIC50": "> 8.00"}
{"molecule": "Cc1cc(Nc2ncc(C)c(N3CC(CC#N)(N4CCCN5CCCC5C4)C3)n2)sn1 (stereo not shown) [E115a]", "pIC50": "> 6.70"}
{"molecule": "Cc1cc(Nc2ncc(C)c(N3CC(CC#N)(NS(C)(=O)=O)C3)n2)sn1", "pIC50": "> 7.70"}
{"molecule": "Cc1cc(Nc2ncc(C)c(N3CC(CC#N)(N4CC5C(C4)C5(F)F)C3)n2)sn1 (stereo not shown)", "pIC50": "> 8.00"}
{"molecule": "Cc1cc(Nc2ncc(C)c(N3CC(CC#N)(N4CCN5C[C@H](C)C[C@H]5C4)C3)n2)sn1 [E117a]", "pIC50": "> 7.30"}
{"molecule": "Cc1cnc(Nc2cnn(C)c2)nc1N1CC(CC#N)(N2CC3(C2)CC(F)(F)CO3)C1 [E172a]", "pIC50": "> 7.00"}
{"molecule": "Cc1cc(Nc2ncc(C)c(N3CC(CC#N)(N4CCC4)C3)n2)sn1", "pIC50": "> 8.00"}
{"molecule": "Cc1cc(Nc2ncc(C)c(N3CC(CC#N)(NC(=O)c4cccc(Cl)c4)C3)n2)sn1", "pIC50": "> 8.00"}
{"molecule": "COc1cnc(Nc2cc(C)ns2)nc1N1CC(CC#N)(N2CCN3C[C@H](F)C[C@H]3C2)C1 [E101a]", "pIC50": "> 8.00"}
{"molecule": "Cc1cnc(Nc2ccc(N3CCOCC3)c(F)c2)nc1N1CC(CCC#N)C1", "pIC50": "> 7.30"}
{"molecule": "Cc1cc(Nc2ncc(C)c(N3CC(CC#N)(N4CCN5CCC[C@@]5(C)C4)C3)n2)sn1 [E84a]", "pIC50": "> 8.00"}
{"molecule": "CCS(=O)(=O)C1CN(C2(CC#N)CN(c3nc(Nc4cc(C)ns4)ncc3C)C2)C1 [E96a]", "pIC50": "> 7.00"}
{"molecule": "Cc1cc(Nc2ncc(C)c(N3CC(CC#N)(N4CCN(CC(C)(C)F)CC4)C3)n2)sn1 [E52D]", "pIC50": "> 8.00"}
{"molecule": "Cc1cc(Nc2ncc(C)c(N3CC(CC#N)(NC(=O)C4CCCC4)C3)n2)sn1", "pIC50": "> 7.30"}
{"molecule": "Cc1cc(Nc2ncc(C)c(N3CC(CC#N)(N4CC5CCC(C4)N5C)C3)n2)sn1", "pIC50": "> 7.30"}
{"molecule": "COC(=O)CC1(N2CCN3C[C@H](F)C[C@H]3C2)CN(c2nc(Nc3cnn(C)c3)ncc2C)C1 [E166a]", "pIC50": "> 6.00"}
{"molecule": "Cc1cnc(Nc2cccc(CN(C)C)c2)nc1N1CC(C)(NC(=O)c2cccc(F)c2)C1", "pIC50": "> 7.70"}
{"molecule": "Cc1cc(Nc2ncc(C)c(N3CC(CC#N)(NCC4CN(C)C4)C3)n2)sn1 [E68a]", "pIC50": "> 6.30"}

* * *

// values below are pIC50; system is JAK1 (Homo sapiens (Human), UniProt P23458)
Sequence (P23458 whole entry, species assumed): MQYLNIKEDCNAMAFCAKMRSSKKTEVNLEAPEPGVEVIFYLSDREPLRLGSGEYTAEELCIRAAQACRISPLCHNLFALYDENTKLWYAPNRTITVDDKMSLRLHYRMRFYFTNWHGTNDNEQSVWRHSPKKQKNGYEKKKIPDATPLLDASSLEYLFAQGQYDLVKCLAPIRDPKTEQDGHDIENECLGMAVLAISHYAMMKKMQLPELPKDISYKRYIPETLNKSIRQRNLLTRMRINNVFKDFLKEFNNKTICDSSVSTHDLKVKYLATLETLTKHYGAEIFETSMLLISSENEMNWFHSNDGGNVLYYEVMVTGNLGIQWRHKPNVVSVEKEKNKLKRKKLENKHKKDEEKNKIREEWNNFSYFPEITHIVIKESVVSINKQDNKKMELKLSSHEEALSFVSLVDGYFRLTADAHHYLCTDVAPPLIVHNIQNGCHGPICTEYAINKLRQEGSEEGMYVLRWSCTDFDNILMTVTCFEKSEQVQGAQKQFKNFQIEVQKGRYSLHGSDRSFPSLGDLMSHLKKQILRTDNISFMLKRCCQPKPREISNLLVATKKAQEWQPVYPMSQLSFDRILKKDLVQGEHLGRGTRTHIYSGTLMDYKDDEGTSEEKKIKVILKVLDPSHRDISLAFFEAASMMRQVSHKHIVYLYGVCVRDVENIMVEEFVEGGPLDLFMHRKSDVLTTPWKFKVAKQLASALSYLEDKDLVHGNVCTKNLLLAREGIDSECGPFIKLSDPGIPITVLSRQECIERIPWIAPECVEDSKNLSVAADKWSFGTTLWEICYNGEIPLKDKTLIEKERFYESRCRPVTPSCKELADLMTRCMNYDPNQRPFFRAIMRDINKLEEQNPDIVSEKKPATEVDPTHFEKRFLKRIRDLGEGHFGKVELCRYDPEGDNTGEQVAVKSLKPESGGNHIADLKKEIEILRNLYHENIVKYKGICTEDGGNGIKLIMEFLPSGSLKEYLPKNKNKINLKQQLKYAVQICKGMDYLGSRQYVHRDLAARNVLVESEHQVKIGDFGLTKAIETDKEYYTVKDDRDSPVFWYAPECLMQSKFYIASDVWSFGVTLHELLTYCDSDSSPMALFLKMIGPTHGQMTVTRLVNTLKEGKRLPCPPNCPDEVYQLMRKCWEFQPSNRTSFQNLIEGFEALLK
pIC50: −log10 of the molar value.
measured.property: pIC50

{"molecule": "CO[C@@H]1C[C@H]2CN(C3(CC#N)CN(c4nc(Nc5cc(C)ns5)ncc4C)C3)CCN2C1 [E72a]", "result": "> 8.00"}
{"molecule": "Cc1cnc(Nc2cnn(C)c2)nc1N1CC(CC#N)(N2CCN3C[C@H](F)C[C@H]3C2)C1 [E152a]", "result": "> 8.00"}
{"molecule": "Cc1cnc(Nc2ccc3c(c2)CN(C)C3)nc1N1CC(CC#N)(N2CCN3C[C@H](F)C[C@H]3C2)C1", "result": "> 8.00"}
{"molecule": "Cc1cnc(Nc2cnn(C)c2)nc1N1CC(CC#N)(N2CCN3CC(F)(F)C[C@H]3C2)C1 [E157a]", "result": "> 8.00"}
{"molecule": "Cc1cc(Nc2ncc(C)c(N3CC(CC#N)(NC(=O)c4cc(F)cc(F)c4C)C3)n2)sn1", "result": "> 7.52"}
{"molecule": "Cc1cc(Nc2ncc(C)c(N3CC(CC#N)(N4CCN5CC(F)(F)C[C@H]5C4)C3)n2)sn1 [E81a]", "result": "> 7.70"}
{"molecule": "Cc1cnc(Nc2cnn(C)c2)nc1N1CC(CC#N)(N[C@H]2CC[C@H](NC(=O)OC(C)(C)C)C2)C1", "result": "< 5.82"}
{"molecule": "Cc1cc(Nc2ncc(C)c(N3CC(CC#N)(NC4CN(C)C4)C3)n2)sn1 [E52H]", "result": "> 7.00"}
{"molecule": "Cc1cc(Nc2ncc(C)c(N3CC(C4CC4)(N4CCCCC4)C3)n2)sn1 [E107a]", "result": "> 7.00"}

* * *

Target: JAK1 (Homo sapiens (Human), UniProt P23458)
pIC50: −log10 of the molar value.
Collected pIC50 values appear next to each entry.
measured.property: pIC50

{"compound": "Cc1cc(Nc2ncc(C)c(N3CC(CC#N)(N4CCN5CC6(CC6)C[C@H]5C4)C3)n2)sn1 [E76a]", "test.target": "JAK1 (Homo sapiens (Human), UniProt P23458)", "result": "> 8.00"}
{"compound": "Cc1cc(Nc2ncc(C)c(N3CC(CC#N)(CN4CCN5C[C@H](F)C[C@H]5C4)C3)n2)sn1 [E117-Y]", "test.target": "JAK1 (Homo sapiens (Human), UniProt P23458)", "result": "> 7.00"}
{"compound": "Cc1cnc(Nc2cnn(C)c2)nc1N1CC(O)(CF)C1 [E175-A]", "test.target": "JAK1 (Homo sapiens (Human), UniProt P23458)", "result": "> 7.00"}
{"compound": "Cc1cc(Nc2ncc(C)c(N3CC(CC#N)(N4C5CC4CN(C)C5)C3)n2)sn1 [E50]", "test.target": "JAK1 (Homo sapiens (Human), UniProt P23458)", "result": "> 6.60"}
{"compound": "Cc1cnc(Nc2cc(C3CC3)ns2)nc1N1CC(CC#N)(N2CCN(C)CC2)C1 [E18]", "test.target": "JAK1 (Homo sapiens (Human), UniProt P23458)", "result": "> 8.30"}
{"compound": "Cc1cc(Nc2ncc(C)c(N3CC(C4CC4)C3)n2)sn1 [E108a]", "test.target": "JAK1 (Homo sapiens (Human), UniProt P23458)", "result": "> 7.30"}
{"compound": "Cc1cc(Nc2ncc(C)c(N3CC(CC#N)(N4CCN(C)C5CC54)C3)n2)sn1 (centres unmarked) [E94a]", "test.target": "JAK1 (Homo sapiens (Human), UniProt P23458)", "result": "> 8.00"}
{"compound": "Cc1cnc(Nc2cnn(C)c2)nc1N1CC(CC#N)(N2CCC3C(CC2)C3(F)F)C1 (centres unmarked) [E160a]", "test.target": "JAK1 (Homo sapiens (Human), UniProt P23458)", "result": "> 8.00"}
{"compound": "Cn1cc(Nc2ncc(Cl)c(N3CC(CC#N)(N4CCN5C[C@H](F)C[C@H]5C4)C3)n2)cn1 [E163a]", "test.target": "JAK1 (Homo sapiens (Human), UniProt P23458)", "result": "> 8.00"}
{"compound": "Cc1cc(Nc2ncc(C)c(N3CC(CC#N)(N4CCCCC4)C3)n2)sn1 [E10]", "test.target": "JAK1 (Homo sapiens (Human), UniProt P23458)", "result": "> 8.00"}
{"compound": "Cc1cnc(Nc2cnn(C)c2)nc1N1CC(CC#N)(N2CCN3C[C@H](C)C[C@H]3C2)C1 [E175a]", "test.target": "JAK1 (Homo sapiens (Human), UniProt P23458)", "result": "> 7.30"}
